pIC50: −log10 of the molar value.
Please consider the recorded pIC50 for Acetylcholinesterase (Mus musculus) in what follows.
experimental.readout: pIC50

>>> value_observed("CN1c2ccc(OC(=O)Nc3ccc4c(c3)OCO4)cc2[C@]2(C)CCN(CCc3ccccc3)[C@H]12")
5.72
>>> value_observed("CN1c2ccc(OC(=O)NC3CCCCC3)cc2[C@]2(C)CCN(CCc3ccccc3)[C@H]12")
5.25
>>> value_observed("CCCCc1ccc(NC(=O)Oc2ccc3c(c2)[C@]2(C)CCN(CCc4ccccc4)[C@@H]2N3C)cc1")
4.32
>>> value_observed("CN1c2ccc(OC(=O)Nc3ccccc3)cc2[C@]2(C)CCN(CCc3ccccc3)[C@H]12")
5.80
>>> value_observed("CN1c2ccc(OC(=O)Nc3ccc(C(C)(C)C)cc3)cc2[C@]2(C)CCN(CCc3ccccc3)[C@H]12")
4.82

----------
target.or.system: Acetylcholinesterase (Mus musculus, UniProt P21836)
Sequence (P21836 whole entry): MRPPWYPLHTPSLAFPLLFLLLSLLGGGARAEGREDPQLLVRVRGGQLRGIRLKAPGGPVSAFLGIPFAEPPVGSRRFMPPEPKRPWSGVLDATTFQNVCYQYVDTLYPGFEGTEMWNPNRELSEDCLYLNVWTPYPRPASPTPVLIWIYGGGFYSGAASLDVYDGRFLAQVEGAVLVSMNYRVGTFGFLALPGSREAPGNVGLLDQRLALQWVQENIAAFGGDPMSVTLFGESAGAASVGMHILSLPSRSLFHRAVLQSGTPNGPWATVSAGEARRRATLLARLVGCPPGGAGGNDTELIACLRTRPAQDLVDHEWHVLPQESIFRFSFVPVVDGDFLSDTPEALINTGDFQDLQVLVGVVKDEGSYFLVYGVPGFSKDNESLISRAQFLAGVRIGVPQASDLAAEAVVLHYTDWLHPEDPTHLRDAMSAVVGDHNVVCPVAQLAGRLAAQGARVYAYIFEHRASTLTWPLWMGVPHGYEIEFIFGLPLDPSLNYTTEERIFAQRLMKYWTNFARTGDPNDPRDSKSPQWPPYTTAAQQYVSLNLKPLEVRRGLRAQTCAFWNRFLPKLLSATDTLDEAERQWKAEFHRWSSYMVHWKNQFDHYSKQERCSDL
pIC50: −log10 of the molar value.
// reported pIC50 per item
experimental.readout: pIC50

>>> value_observed("COc1ccc(NC(=O)Oc2ccc3c(c2)[C@]2(C)CCN(CCc4ccccc4)[C@@H]2N3C)cc1OC")
4.96
>>> value_observed("CN1c2ccc(OC(=O)NCCc3ccccc3)cc2[C@]2(C)CCN(CCc3ccccc3)[C@H]12")
6.35
>>> value_observed("CNC(=O)Oc1ccc2c(c1)[C@]1(C)CCN(C)[C@@H]1N2C")
7.40
>>> value_observed("CCCCCCNC(=O)Oc1ccc2c(c1)[C@]1(C)CCN(CCc3ccccc3)[C@@H]1N2C")
6.01
>>> value_observed("CN1c2ccc(OC(=O)Nc3ccc4ccccc4c3)cc2[C@]2(C)CCN(CCc3ccccc3)[C@H]12")
4.36

----------
target.or.system: UniProt:Q03311
Sequence (Q03311 whole entry): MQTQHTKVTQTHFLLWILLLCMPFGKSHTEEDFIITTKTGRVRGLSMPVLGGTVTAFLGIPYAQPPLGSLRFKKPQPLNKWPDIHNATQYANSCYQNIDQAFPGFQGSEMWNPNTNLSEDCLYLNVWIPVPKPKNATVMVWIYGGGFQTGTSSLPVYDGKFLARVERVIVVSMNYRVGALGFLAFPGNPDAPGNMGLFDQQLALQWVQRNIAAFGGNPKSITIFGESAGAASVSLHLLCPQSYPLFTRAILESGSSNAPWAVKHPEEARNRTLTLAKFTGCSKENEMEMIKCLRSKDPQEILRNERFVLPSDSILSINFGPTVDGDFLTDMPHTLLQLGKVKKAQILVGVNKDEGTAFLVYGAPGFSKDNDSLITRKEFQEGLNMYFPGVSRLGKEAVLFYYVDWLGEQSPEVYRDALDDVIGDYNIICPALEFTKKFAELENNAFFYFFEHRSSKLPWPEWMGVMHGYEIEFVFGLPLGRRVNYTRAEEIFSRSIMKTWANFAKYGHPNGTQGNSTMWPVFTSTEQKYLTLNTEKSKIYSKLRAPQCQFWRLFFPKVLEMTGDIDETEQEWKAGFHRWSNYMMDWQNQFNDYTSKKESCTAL
experimental.details: Inhibition of mouse serum BChE after 1 hr by modified Ellman's colorimetric method
pIC50: −log10 of the molar value.
experimental.readout: pIC50

>>> value_observed("CN1c2ccc(OC(=O)Nc3ccccc3)cc2[C@]2(C)CCN(CCc3ccccc3)[C@H]12")
6.47
>>> value_observed("CC(=O)c1ccc(NC(=O)Oc2ccc3c(c2)[C@]2(C)CCN(CCc4ccccc4)[C@@H]2N3C)cc1")
5.23
>>> value_observed("CN1c2ccc(OC(=O)Nc3ccc(-c4ccccc4)cc3)cc2[C@]2(C)CCN(CCc3ccccc3)[C@H]12")
5.96
>>> value_observed("CN(C)c1ccc(NC(=O)Oc2ccc3c(c2)[C@]2(C)CCN(CCc4ccccc4)[C@@H]2N3C)cc1")
7.10

Data origin: ChEMBL document CHEMBL1154942
